Each record here notes measured yeast fitness.
B1: tRNA (parent)
chain: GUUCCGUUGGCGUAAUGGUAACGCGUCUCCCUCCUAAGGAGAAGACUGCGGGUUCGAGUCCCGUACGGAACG

variants of: B1; test: yeast fitness relative to wild type (ratio to wild type); higher = fitter; tRNA-Arg(CCU), competitive growth, 37 C, YPD
This sample holds only a part of the variants without activity.

These solved cases illustrate the format of a correct answer.
C33G U53C ... ≤ 0.5
U2C U19C A37G C49A ... ≤ 0.5
G6C U7A U64G ... ≤ 0.5
G6A C11A U19A ... 0.53

*Q* Return reported yeast fitness; argument: A21G C49U
*A* 0.994

*Q* Next: U2C U26C
*A* 0.947

*Q* Next record, please: A20U A36G G38A A40U A42G
*A* ≤ 0.5

*Q* One more variant: A14C A40U C55G C61U C66U
*A* ≤ 0.5

*Q* Queued: A37U C49U G58A
*A* 0.57

*Q* // query: U19G C22G C34U G68C
*A* ≤ 0.5

*Q* U7A G10A A37G G41C A42U C46A C61G ?
*A* 0.738

*Q* Moving on to the next variant: U7C G63C
*A* 0.611

*Q* Same lookup for U16C G17C C22G , please.
*A* 0.534

*Q* Ok, now C27A C31U
*A* 0.941

*Q* Note, next up: G6C A45C
*A* 0.614

*Q* Repeat with G12C U32G C33G G68C
*A* ≤ 0.5

*Q* Thanks! And C4G U16C G41C C62U ?
*A* ≤ 0.5

*Q* Proceed to U16A U54C
*A* 0.849

*Q* Ok, now U2A A57G
*A* 0.897

*Q* Please give the result for C27U A37U A69C too.
*A* 0.608

*Q* Follow-up entry: C5U A45G G67A
*A* 0.743

*Q* And what about the variant A14U U28A G67C ?
*A* ≤ 0.5

*Q* Proceed to C5A C30U
*A* 0.693

*Q* Follow-up item: C4A C24A G51C
*A* 0.595

*Q* One more variant: U13G U19C C61U
*A* ≤ 0.5

*Q* Then A21C C29G C33A A42C C62A ?
*A* 0.52
